Biological target: cow milk xanthine oxidase (Bos taurus, UniProt P80457)
Construct: in the presence of cow milk xanthine oxidase
Sequence (P80457 whole entry): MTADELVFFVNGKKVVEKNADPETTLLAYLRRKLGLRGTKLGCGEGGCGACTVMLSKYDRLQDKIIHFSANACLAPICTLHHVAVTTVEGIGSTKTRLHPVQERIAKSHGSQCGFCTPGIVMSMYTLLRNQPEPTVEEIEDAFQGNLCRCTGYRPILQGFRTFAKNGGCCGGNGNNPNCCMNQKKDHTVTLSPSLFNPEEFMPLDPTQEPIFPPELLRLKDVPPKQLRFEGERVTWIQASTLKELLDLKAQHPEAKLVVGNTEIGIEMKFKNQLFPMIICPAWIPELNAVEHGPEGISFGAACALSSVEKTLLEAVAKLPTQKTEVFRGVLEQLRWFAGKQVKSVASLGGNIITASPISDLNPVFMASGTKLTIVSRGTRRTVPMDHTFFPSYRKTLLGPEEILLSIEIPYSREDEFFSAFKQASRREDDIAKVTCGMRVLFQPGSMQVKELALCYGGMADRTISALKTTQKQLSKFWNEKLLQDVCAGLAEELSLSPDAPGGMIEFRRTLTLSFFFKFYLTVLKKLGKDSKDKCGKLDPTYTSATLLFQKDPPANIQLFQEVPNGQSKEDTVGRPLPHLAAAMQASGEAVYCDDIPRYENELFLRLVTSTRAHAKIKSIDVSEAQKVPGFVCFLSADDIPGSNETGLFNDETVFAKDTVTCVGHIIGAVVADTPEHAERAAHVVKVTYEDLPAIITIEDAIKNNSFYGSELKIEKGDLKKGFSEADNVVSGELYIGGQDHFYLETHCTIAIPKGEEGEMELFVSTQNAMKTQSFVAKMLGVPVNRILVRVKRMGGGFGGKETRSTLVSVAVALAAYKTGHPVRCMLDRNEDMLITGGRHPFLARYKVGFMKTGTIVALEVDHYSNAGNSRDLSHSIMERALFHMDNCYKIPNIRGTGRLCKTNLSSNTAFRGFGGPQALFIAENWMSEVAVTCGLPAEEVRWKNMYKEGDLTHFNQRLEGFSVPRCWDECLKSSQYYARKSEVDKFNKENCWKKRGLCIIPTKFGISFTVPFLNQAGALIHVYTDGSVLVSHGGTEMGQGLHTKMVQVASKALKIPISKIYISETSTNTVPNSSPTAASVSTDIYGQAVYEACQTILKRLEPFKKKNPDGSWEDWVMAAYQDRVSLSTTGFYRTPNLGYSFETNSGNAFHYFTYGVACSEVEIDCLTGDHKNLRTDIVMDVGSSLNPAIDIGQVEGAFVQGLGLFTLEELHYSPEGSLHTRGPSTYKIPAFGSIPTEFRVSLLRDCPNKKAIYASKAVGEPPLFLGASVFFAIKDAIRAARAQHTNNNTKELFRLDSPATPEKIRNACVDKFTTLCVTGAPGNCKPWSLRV
Assay: Inhibition of uric acid production by xanthine oxidase in vitro
Details: pH 7.5, 2.19-21.9 μmole/L xanthine, 0-0.44 μmole/L AHPP, 3.33 mU/ml enzyme; read-out: inhibitory coefficient (Ki) for xanthine oxidase
Parameter: Ki

> print(dat)
            item.smiles  reading
1  Nc1nc(O)nc2[nH]ncc12   200 nM
